The following compounds are listed with their measured IC50 values.
# target-of-assay: UniProt P17812
# Sequence (P17812 whole entry): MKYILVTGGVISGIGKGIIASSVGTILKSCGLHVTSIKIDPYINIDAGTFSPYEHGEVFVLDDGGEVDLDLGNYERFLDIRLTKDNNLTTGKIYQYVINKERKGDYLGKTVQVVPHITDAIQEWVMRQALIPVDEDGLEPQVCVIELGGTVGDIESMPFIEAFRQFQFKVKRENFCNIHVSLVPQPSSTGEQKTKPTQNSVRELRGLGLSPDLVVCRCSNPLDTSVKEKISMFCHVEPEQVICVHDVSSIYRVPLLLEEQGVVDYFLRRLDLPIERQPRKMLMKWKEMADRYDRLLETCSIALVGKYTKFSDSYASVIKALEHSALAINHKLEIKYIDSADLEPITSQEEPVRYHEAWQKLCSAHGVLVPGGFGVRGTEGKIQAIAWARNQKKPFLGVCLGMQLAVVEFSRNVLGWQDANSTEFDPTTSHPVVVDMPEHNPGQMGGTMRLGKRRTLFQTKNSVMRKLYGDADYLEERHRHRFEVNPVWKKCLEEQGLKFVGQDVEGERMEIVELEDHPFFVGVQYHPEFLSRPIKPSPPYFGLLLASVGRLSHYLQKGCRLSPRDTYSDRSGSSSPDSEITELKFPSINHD

[
  {
    "compound": "CCOc1cncc(-c2ccc(NC(=O)C3(c4ccnc(NS(=O)(=O)C5CC5)n4)CCC(=C(F)CO)CC3)nc2)n1 (stereo not drawn) [Compound 39]",
    "target-of-assay": "UniProt P17812",
    "IC50": "< 25 nM"
  },
  {
    "compound": "CCOc1cncc(-c2ccc(NC(=O)C3(c4ccnc(NS(=O)(=O)C5CC5)n4)CC(=CC4CCOCC4)C3)nc2)n1 (stereo not drawn) [Compound 48]",
    "target-of-assay": "UniProt P17812",
    "IC50": "< 100 nM"
  },
  {
    "compound": "CCOc1cncc(-c2ccc(NC(=O)C3(c4ccnc(NS(=O)(=O)C5CC5)n4)CCC(=CCC(C)(C)O)CC3)nc2)n1 (stereo not drawn) [Compound 58]",
    "target-of-assay": "UniProt P17812",
    "IC50": "< 25 nM"
  }
]

Just for reference, patent US20260226026A1 is where these values come from.
